targetDesc: hA2AAR (Homo sapiens)
Sequence (P29274 whole entry): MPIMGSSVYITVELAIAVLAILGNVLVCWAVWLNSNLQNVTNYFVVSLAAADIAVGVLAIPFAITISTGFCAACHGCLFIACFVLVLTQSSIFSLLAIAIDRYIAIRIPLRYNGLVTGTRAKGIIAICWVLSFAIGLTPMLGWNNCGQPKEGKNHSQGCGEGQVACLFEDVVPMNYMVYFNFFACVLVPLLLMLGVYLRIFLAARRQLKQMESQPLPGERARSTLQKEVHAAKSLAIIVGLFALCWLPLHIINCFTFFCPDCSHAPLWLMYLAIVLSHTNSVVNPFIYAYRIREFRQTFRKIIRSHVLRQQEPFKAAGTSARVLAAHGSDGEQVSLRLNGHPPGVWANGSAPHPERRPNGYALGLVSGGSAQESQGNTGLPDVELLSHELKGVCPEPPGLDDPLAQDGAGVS
measurementProtocol: Radioligand membrane binding, [3H]CGS21680, stably transfected HEK cells
details: read-out: Binding, Ki app, A2A, dendrimer concentration, mean ± SEM, n = 3
testReadout: Ki (nM)
Give your result in nM as a bare value.

Data point: PAMAMG5.5-1(AF488-ED)-60(N-(2-aminoethyl)-ADAC) [compound 8] ; Ki = 80

###

Tested on: A3AR-transfected HL-1 cells
measurementProtocol: LDH assay, protection from H2O2-induced cell death, hA3AR-transfected cells
Type: cell-based, mouse
details: read-out: Protection of A3 AR-transfected cells against H2O2, EC50 (lactate dehydrogenase release); 750 μM H2O2, 4 h
testReadout: pEC50
Here pEC50 is given on a logarithmic scale as minus log10 of the concentration in mol/L.

Data point: CCNC(=O)[C@H]1O[C@@H](n2cnc3c(N)ncnc32)[C@H](O)[C@@H]1O ; pEC50 = 5.41

###

System: A3AR-transfected HL-1 cells
measurementProtocol: LDH assay, protection from H2O2-induced cell death, hA3AR-transfected cells
Format: cell-based, mouse
details: Mus musculus, HL-1, 4 h, read-out: Protection of A3 AR-transfected cells against H2O2, EC50 (lactate dehydrogenase release)
testReadout: EC50
Units required after the number.

The molecule CNC(=O)[C@H]1O[C@@H](n2cnc3c(NCc4cccc(I)c4)ncnc32)[C@H](O)[C@@H]1O on A3AR-transfected HL-1 cells: EC50 was 3.8 µM
